test: Oral bioavailability in rat at 10 mg/kg administered as cassette dose measured by UPLC-MS/MS; assay type: ADME, organism-based; conditions: in vivo
Reported bioavailability by item:
Unit % implied. Number only.

Solved cases (3 shown):
CCC(=O)N[C@H]1Cc2cccc(C(=O)OCOC(C)=O)c2OB1O	10
CCOC(C)(C)C(=O)OCOC(=O)c1cccc2c1OB(O)[C@@H](NC(=O)CC)C2	28
CCC(=O)N[C@H]1Cc2cccc(C(=O)OCOC(=O)OC(CC)CC)c2OB1O	33

Q. Name the recorded bioavailability for CCC(=O)N[C@H]1Cc2cccc(C(=O)OCOC(=O)OC(C)C)c2OB1O .
A. 23

Q. // repeat for CCC(=O)N[C@H]1Cc2cccc(C(=O)OCOC(=O)OC3CCCC3)c2OB1O and report
A. 24

Q. Follow-up item: CCC(=O)N[C@H]1Cc2cccc(C(=O)OCOC(=O)C3CCCC3)c2OB1O
A. 19

Q. Also CCC(=O)N[C@H]1Cc2cccc(C(=O)OCOC(=O)C(C)C)c2OB1O ?
A. 38

---

assay: Inhibition of bacterial beta-lactamase OXA-48 using nitrocefin as substrate preincubated for 15 mins followed by substrate addition and measured after 10 mins by spectrophotometric analysis; set-up: species or system Bacteria
Recorded pIC50 values for a group of compounds are listed next.
The read-out pIC50 is expressed as -log10 of concentration in moles per litre.

Q. Given the entry N#CCCC(=O)N[C@H]1Cc2cccc(C(=O)O)c2OB1O , report its measured pIC50.
A. 6.16

---

experiment: Oral bioavailability in mouse at 5 mg/kg administered as cassette dose measured by UPLC-MS/MS analysis; type: ADME, organism-based; conditions: in vivo
Parameter measured: bioavailability (%)
Number only, in %; omit the unit.

Q. Which bioavailability is reported for this compound? CCC(=O)N[C@H]1Cc2cccc(C(=O)OCOC(=O)C(C)(C)C)c2OB1O
A. 42

---

Consider the following compounds and their measured pIC50 readings.
assay: Inhibition of bacterial beta-lactamase AmpC using nitrocefin as substrate preincubated for 15 mins followed by substrate addition and measured after 10 mins by spectrophotometric analysis; set-up: species or system Bacteria
Field pIC50 (float): negative decimal logarithm of the concentration in molar.

Examples with answers:
O=C(CCC(F)(F)F)N[C@H]1Cc2cccc(C(=O)O)c2OB1O	8.05
N#CCCC(=O)N[C@H]1Cc2cccc(C(=O)O)c2OB1O	7.85
C#CCCC(=O)N[C@H]1Cc2cccc(C(=O)O)c2OB1O	8.22

Q. Need pIC50 of NS(=O)(=O)CCC(=O)N[C@H]1Cc2cccc(C(=O)O)c2OB1O , thanks.
A. 8.52

Q. Same question for CCCC(=O)N[C@H]1Cc2cccc(C(=O)O)c2OB1O please.
A. 8.05

Q. Cool, now CC(=O)CCC(=O)N[C@H]1Cc2cccc(C(=O)O)c2OB1O
A. 8.10

---

tested on: Klebsiella pneumoniae; experiment: Antibacterial activity against Klebsiella pneumoniae expressing OXA-48 assessed as concentration required to restore ceftibuten activity incubated for 16 to 20 hrs in presence of 1 ug/ml ceftibuten by broth microdilution method; assay type: functional; settings: time 16-20 hrs
# label = 1.0 if Activity >= 2 µg/mL else 0.0

CCCC(=O)N[C@H]1Cc2cccc(C(=O)O)c2OB1O	0.0

Next:
Q. Threshold query (Activity >= 2 µg/mL) on O=C(CCC(F)(F)F)N[C@H]1Cc2cccc(C(=O)O)c2OB1O
A. 1.0

---

test: Inhibition of bacterial beta-lactamase SHV-5 using cefotaxime as substrate preincubated for 15 mins followed by substrate addition and measured after 10 mins by spectrophotometric analysis; design: species or system Bacteria
Readings of pIC50 for the listed molecules
Note on pIC50: it is the negative log10 of concentration, concentration in mol/L.

CS(=O)(=O)NCCC(=O)N[C@H]1Cc2cccc(C(=O)O)c2OB1O	7.92
C#CCCC(=O)N[C@H]1Cc2cccc(C(=O)O)c2OB1O	7.77
NS(=O)(=O)CCC(=O)N[C@H]1Cc2cccc(C(=O)O)c2OB1O	8.10
CCCC(=O)N[C@H]1Cc2cccc(C(=O)O)c2OB1O	7.44
CCC(=O)N[C@H]1Cc2cccc(C(=O)O)c2OB1O	6.90
NC(=O)CCC(=O)N[C@H]1Cc2cccc(C(=O)O)c2OB1O	6.29

Q. What pIC50 value was documented for this molecule, O=C(CCC(F)(F)F)N[C@H]1Cc2cccc(C(=O)O)c2OB1O ?
A. 8.10

Q. Try N#CCCC(=O)N[C@H]1Cc2cccc(C(=O)O)c2OB1O next.
A. 7.92

Q. Input CC(=O)CCC(=O)N[C@H]1Cc2cccc(C(=O)O)c2OB1O
A. 7.60

---

test: Oral bioavailability in monkey at 10 mg/kg administered as cassette dose measured by UPLC-MS/MS analysis; format: ADME, organism-based, Macaca mulatta; settings: rhesus monkey, in vivo
Parameter measured: bioavailability (%)
The response must be a number in % with no trailing unit.

Q. Which value of bioavailability has been reported for CCC(=O)N[C@H]1Cc2cccc(C(=O)OCOC(=O)C(C)(C)C)c2OB1O in the records?
A. 52

---

tested on: Escherichia coli; assay: Antibacterial activity against Escherichia coli 786978 expressing KPC assessed as concentration required to restore ceftibuten activity incubated for 16 to 20 hrs in presence of 1 ug/ml ceftibuten by broth microdilution method; format: functional; details: time 16-20 hrs
In this section we review reported Activity values for a set of compounds.

Please review the following examples before continuing.
O=C(CCC(F)(F)F)N[C@H]1Cc2cccc(C(=O)O)c2OB1O	1 µg/mL
CCC(=O)N[C@H]1Cc2cccc(C(=O)O)c2OB1O [LEDABORBACTAM]	0.5 µg/mL
CC(=O)CCC(=O)N[C@H]1Cc2cccc(C(=O)O)c2OB1O	1 µg/mL
NC(=O)CCC(=O)N[C@H]1Cc2cccc(C(=O)O)c2OB1O	1 µg/mL
NS(=O)(=O)CCC(=O)N[C@H]1Cc2cccc(C(=O)O)c2OB1O	1 µg/mL
CS(=O)(=O)NCCC(=O)N[C@H]1Cc2cccc(C(=O)O)c2OB1O	0.5 µg/mL

Q. Entry CC(F)(F)CCC(=O)N[C@H]1Cc2cccc(C(=O)O)c2OB1O : reported Activity = ?
A. 1 µg/mL

Q. And the next one, N#CCCC(=O)N[C@H]1Cc2cccc(C(=O)O)c2OB1O ?
A. 0.5 µg/mL

Q. What would you report for CCCC(=O)N[C@H]1Cc2cccc(C(=O)O)c2OB1O ?
A. 0.5 µg/mL

Q. Next compound: C#CCCC(=O)N[C@H]1Cc2cccc(C(=O)O)c2OB1O
A. 1 µg/mL

Q. Item: Nc1nc(/C(=C/CC(=O)O)C(=O)N[C@@H]2C(=O)N3C(C(=O)O)=CCS[C@H]23)cs1 [CEFTIBUTEN]
A. 8 µg/mL

---

assay: Inhibition of bacterial beta-lactamase KPC-2 using imipenem as substrate preincubated for 15 mins followed by substrate addition and measured after 10 mins by spectrophotometric analysis; set-up: species or system Bacteria
Let's look at some compounds and their measured IC50.
Reply numerically in nM, unit not repeated.

Q. I'd like to know its IC50. The compound in question is NS(=O)(=O)CCC(=O)N[C@H]1Cc2cccc(C(=O)O)c2OB1O
A. 35

Q. Try the compound CC(=O)CCC(=O)N[C@H]1Cc2cccc(C(=O)O)c2OB1O
A. 116

Q. Then this compound: CCCC(=O)N[C@H]1Cc2cccc(C(=O)O)c2OB1O
A. 93

Q. Queued: O=C(CCC(F)(F)F)N[C@H]1Cc2cccc(C(=O)O)c2OB1O
A. 43

Q. Now give it for NC(=O)CCC(=O)N[C@H]1Cc2cccc(C(=O)O)c2OB1O too.
A. 69

Q. Next entry: N#CCCC(=O)N[C@H]1Cc2cccc(C(=O)O)c2OB1O
A. 33

Q. Ok, now CC(F)(F)CCC(=O)N[C@H]1Cc2cccc(C(=O)O)c2OB1O
A. 41

Q. Same thing, different compound: CCC(=O)N[C@H]1Cc2cccc(C(=O)O)c2OB1O [LEDABORBACTAM]
A. 80

Q. Another compound: C#CCCC(=O)N[C@H]1Cc2cccc(C(=O)O)c2OB1O
A. 31

Q. What about this compound? CS(=O)(=O)NCCC(=O)N[C@H]1Cc2cccc(C(=O)O)c2OB1O
A. 28

---

# Activity annotations
test system: Escherichia coli; assay: Antibacterial activity against Escherichia coli expressing CTX-M-15/TEM-1 assessed as concentration required to restore ceftibuten activity incubated for 16 to 20 hrs in presence of 1 ug/ml ceftibuten by broth microdilution method; assay type: functional; conditions: time 16-20 hrs
Write the value in µg/mL as a bare number.

C#CCCC(=O)N[C@H]1Cc2cccc(C(=O)O)c2OB1O	0.25
CS(=O)(=O)NCCC(=O)N[C@H]1Cc2cccc(C(=O)O)c2OB1O	0.12
CCCC(=O)N[C@H]1Cc2cccc(C(=O)O)c2OB1O	0.12
O=C(CCC(F)(F)F)N[C@H]1Cc2cccc(C(=O)O)c2OB1O	1
CCC(=O)N[C@H]1Cc2cccc(C(=O)O)c2OB1O [LEDABORBACTAM]	0.12

Q. Recorded Activity of N#CCCC(=O)N[C@H]1Cc2cccc(C(=O)O)c2OB1O , please.
A. 0.12

Q. Consider next the compound NS(=O)(=O)CCC(=O)N[C@H]1Cc2cccc(C(=O)O)c2OB1O in the same way.
A. 0.25

Q. And the next one, CC(F)(F)CCC(=O)N[C@H]1Cc2cccc(C(=O)O)c2OB1O ?
A. 0.5

Q. Field entry: CC(=O)CCC(=O)N[C@H]1Cc2cccc(C(=O)O)c2OB1O
A. 0.12

Q. // query: Nc1nc(/C(=C/CC(=O)O)C(=O)N[C@@H]2C(=O)N3C(C(=O)O)=CCS[C@H]23)cs1 [CEFTIBUTEN]
A. 128

Q. Then what about the compound NC(=O)CCC(=O)N[C@H]1Cc2cccc(C(=O)O)c2OB1O ?
A. 0.12

Origin of values: ChEMBL document CHEMBL5034013
